target: L-lactate dehydrogenase (Plasmodium falciparum (isolate CDC / Honduras)); assay: PfLDH activity inhibition – cell lysate, 3D7 strain, counter-screen for P. falciparum growth inhibition project (AID 2304);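 note: 0% = vehicle and 100% = reference inhibitor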; conditions: P. falciparum 3D7 crude extract, LDH APAD/NBT absorbance; at 2 µM; stronger effect = higher value
observable: inhibition (%)
Please state the figure in %; there is no need to write the unit.

## Task Value wanted: inhibition (L-lactate dehydrogenase (Plasmodium falciparum (isolate CDC / Honduras))) of entry O=C(NC1CCC1)C1CCN(C(c2ccccc2)c2cc(F)cc(F)c2)CC1 (stereo not drawn)
## Result -2

## Task Also COc1ccc(CSC2CCCCC23NC(=S)NC3=S)cc1 (stereo not drawn) , if possible.
## Result -1

## Task Also "CC(=O)Oc1cc(OCc2ccccc2)c(OC(C)=O)c(OCc2ccccc2)c1" , if possible.
## Result 1

## Task Also "OCC1CCN(Cc2cccc(-c3cccc(-c4nc5ccc(C(F)(F)F)cc5[nH]4)c3)c2)CC1" , if possible.
## Result -3

## Task Also "O=C(N1CCN(c2ccnc3cc4c(cc23)N(Cc2ccccc2)CC4)CC1)C(F)(F)F" , if possible.
## Result 3

## Task Also "CCC(=O)Nc1nnc(Cc2ccc(OC)c(OC)c2)s1" , if possible.
## Result -2

## Task Also "Nc1nc(N)c2c(Cl)c(N3CCOCC3)ccc2n1" , if possible.
## Result 1

## Task Also "CC(C)N1CCN(C(=O)c2ccc(CNCCCN3CCN(c4ccccc4C(F)(F)F)CC3)s2)CC1" , if possible.
## Result -7

## Task Also "Fc1cc(Cl)ccc1Nc1ccnc2cc(-c3ccc(CN4CCCCC4)o3)ccc12" , if possible.
## Result -1

## Task Also "O=C(/C=C/c1ccc(Cl)c(Cl)c1)N1CCC(CN2CCC(Cc3nc4ccccc4[nH]3)CC2)CC1" , if possible.
## Result -2

## Task Also "CN1CCN(c2ccc(CNc3ccc4ncc(-c5ccc(OC(F)(F)F)cc5)n4n3)cc2)CC1" , if possible.
## Result 0

## Task Also "O=C(Nc1ccc(Cl)cc1)Nc1ccc2nonc2c1" , if possible.
## Result -4

## Task Also "CC(=O)c1ccc(-c2ccc(C(=O)NCCCCN3CCC(c4ccc5c(c4O)CCCC5)CC3)cc2)cc1" , if possible.
## Result 1

## Task Also "Cc1cc(-c2ccc3occ(CCN)c3c2)cnc1N" , if possible.
## Result -2

## Task Also "CCC(=O)Nc1ccc(Nc2nc(C)cc(N3CCCC3)n2)cc1" , if possible.
## Result -2

## Task Also "CCOc1cc(C)ccc1C1CCN(CCN2CCC(CNC(=O)c3ccc(-c4ccc(C(F)(F)F)cc4)cc3)CC2)CC1" , if possible.
## Result -2

## Task Also "Cc1cc(N2CCC(C)CC2)nc2cc(O)ccc12" , if possible.
## Result -1

## Task Also "CCOC(=O)c1c(CCc2ccc(C(F)(F)F)cc2)nc2c(c1-c1ccc(C(=O)N[C@@H](C)c3ccncc3)cc1)C(=O)N1CCC[C@@H]21" , if possible.
## Result -2

###

Can you tell me inhibition for the items I'm about to list?
target: L-lactate dehydrogenase (Plasmodium falciparum (isolate CDC / Honduras)); test: PfLDH activity inhibition – cell lysate, 3D7 strain, counter-screen for P. falciparum growth inhibition project (AID 2304);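 note: 0% = vehicle and 100% = reference inhibitor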; settings: P. falciparum 3D7 crude extract, LDH APAD/NBT absorbance; at 2 µM; stronger effect = higher value
Please state the figure in %; there is no need to write the unit.

## Task Please look up its inhibition: CCCC(C)Nc1nc(C)cc(N[C@@H](CC(C)C)C(=O)Nc2ccc(OC)cc2)n1 (some centres not stated)
## Result -1

## Task Also "Cc1ccc2nc(-c3ccccc3Nc3ccnc4cc(-c5nccs5)ccc34)[nH]c2c1" , if possible.
## Result -5

## Task Also OC(CNc1ccnc(Nc2ccc(Cl)cc2)n1)c1ccccc1C(F)(F)F (configuration not stated) , if possible.
## Result 0

## Task Also "CN(C)CCCn1c(C(=O)OC(c2ccccc2)c2ccccc2)cc2cc(OCc3ccccc3)ccc21" , if possible.
## Result 0

## Task Also "Cc1ccc2c(=O)c3cc(C)ccc3[nH]c2c1" , if possible.
## Result 5

## Task Also COc1ccc(N2CCN(c3nc(N)c4cc(OC)c(OC)cc4n3)CC2C)cc1 (configuration not stated) , if possible.
## Result 0

## Task Also "Cc1ccc(CNC(=O)[C@H](Cc2ccccc2)Nc2cc(C)nc(NCc3ccccc3C)n2)cc1" , if possible.
## Result 0

## Task Also "Cc1cc2ccc(-c3cccc(CN)c3)cc2nc1N" , if possible.
## Result -6

## Task Also COc1cccc(CC(=O)NC2CCN(c3ccnc4cc(Cl)ccc34)C2)c1 (configuration not stated) , if possible.
## Result -2

## Task Also Cc1ccc(NC(C)C(=O)Nc2ccccc2)cc1S(=O)(=O)N1CCCCCC1 (configuration not stated) , if possible.
## Result -4

## Task Also "COCCn1ccc2c3c(N)nc(N)nc3ccc21" , if possible.
## Result -2

## Task Also "COCCOc1ccc(C(F)(F)F)cc1NC(=O)Cc1c(F)cccc1Cl" , if possible.
## Result 2

## Task Also "O=C(Nc1cc(C(F)(F)F)ccc1N1CCOCC1)C(Cl)(Cl)Cl" , if possible.
## Result 5

## Task Also "C[C@@H]1CN(c2cnn(C/C=C/c3ccc(NC(=O)c4ccc5nonc5c4)cc3)c(=O)c2Cl)C[C@H](C)N1" , if possible.
## Result -3

## Task Also "Cc1ccc(CNC(=O)[C@H](CCCN)Nc2nc(NCC3CCCCC3)ncc2C)cc1" , if possible.
## Result 3

## Task Also "CC(C)(CNCc1ccc(C(F)(F)F)cc1)c1nc(-c2ccc(Cl)c(O)c2)c(-c2ccncc2)[nH]1" , if possible.
## Result -1

## Task Also Cc1cccc2[nH]c(-c3ccc(-c4cccc(NC(=O)C(C)CN5CCN(C)CC5)c4)s3)nc12 (configuration not stated) , if possible.
## Result -6
